assay: In vivo biodistribution of [^203Pb]VMT01 in B16-F10 melanoma xenograft model; design: species or system athymic nude mice; conditions: both sexes, athymic nude, mouse, tumor, intravenous, 74 KBq, total radioactivity, 24 h post-injection, tail vein, read-out: Biodistribution, Tumor, Average
Where a SMILES comes first, the peptide text is derived from it. Bridges are numbered along the chain shown (N, C = ends). Triazole bridges read from a SMILES are 1,4-linked. Side-chain parts run from the residue outwards. [ ]: non-standard residue; d: D form. The star is where a group is joined. X1 = NC(=O)CN1CCN(CC(=O)O)CCN(CC(=O)*)CCN(CC(=O)O)CC1; Lys(N3) = [N-]=[N+]=NCCCC[C@H](N)C(=O)O; Nle = CCCC[C@H](N)C(=O)O; Pra = C#CC[C@H](N)C(=O)O; AEEA = NCCOCCOCC(=O)O
TEST READOUT: tissue uptake at 24 h

Problem: Need tissue uptake at 24 h of CCCC[C@H](NC(C)=O)C(=O)N[C@H]1Cc2cn(nn2)CCCC[C@@H](C(=O)N[C@@H](CCCCNC(=O)COCCOCCNC(=O)CN2CCN(CC(=O)O)CCN(CC(N)=O)CCN(CC(=O)O)CC2)C(N)=O)NC(=O)[C@H](Cc2c[nH]c3ccccc23)NC(=O)[C@H](CCCNC(=N)N)NC(=O)[C@@H](Cc2ccccc2)NC(=O)[C@H](Cc2c[nH]cn2)NC1=O [[^203Pb]VMT01, metal not drawn] (Ac-[Nle][Pra]H[dF]RW[Lys(N3)]K([AEEA-X1])-NH2; triazole 2-7) , thanks.
Result: 1.7 %ID/g

====

assay: In vivo biodistribution of [^203Pb]VMT01 in B16-F10 melanoma xenograft model; set-up: species or system athymic nude mice; conditions: both sexes, athymic nude, mouse, kidney, intravenous, 74 KBq, total radioactivity, 6 h post-injection, tail vein, read-out: Biodistribution, Kidneys, Average
Where a SMILES comes first, the peptide text is derived from it. Bridges are numbered along the chain shown (N, C = ends). Triazole bridges read from a SMILES are 1,4-linked. Side-chain parts run from the residue outwards. [ ]: non-standard residue; d: D form. The star is where a group is joined. X1 = NC(=O)CN1CCN(CC(=O)O)CCN(CC(=O)*)CCN(CC(=O)O)CC1; Lys(N3) = [N-]=[N+]=NCCCC[C@H](N)C(=O)O; Nle = CCCC[C@H](N)C(=O)O; Pra = C#CC[C@H](N)C(=O)O; AEEA = NCCOCCOCC(=O)O
TEST READOUT: tissue uptake at 6 h (%ID/g)
A number alone suffices; assume %ID/g.

Problem: Need tissue uptake at 6 h of CCCC[C@H](NC(C)=O)C(=O)N[C@H]1Cc2cn(nn2)CCCC[C@@H](C(=O)N[C@@H](CCCCNC(=O)COCCOCCNC(=O)CN2CCN(CC(=O)O)CCN(CC(N)=O)CCN(CC(=O)O)CC2)C(N)=O)NC(=O)[C@H](Cc2c[nH]c3ccccc23)NC(=O)[C@H](CCCNC(=N)N)NC(=O)[C@@H](Cc2ccccc2)NC(=O)[C@H](Cc2c[nH]cn2)NC1=O [[^203Pb]VMT01, metal not drawn] (Ac-[Nle][Pra]H[dF]RW[Lys(N3)]K([AEEA-X1])-NH2; triazole 2-7) , thanks.
Result: 5.3
